Cited source for all entries: paper PMC3094755

# TESTED_ON: PARP-1 F1+F2 (24-kDa DBD) (Homo sapiens, UniProt P09874 1-214)
# Sequence (P09874 1-214): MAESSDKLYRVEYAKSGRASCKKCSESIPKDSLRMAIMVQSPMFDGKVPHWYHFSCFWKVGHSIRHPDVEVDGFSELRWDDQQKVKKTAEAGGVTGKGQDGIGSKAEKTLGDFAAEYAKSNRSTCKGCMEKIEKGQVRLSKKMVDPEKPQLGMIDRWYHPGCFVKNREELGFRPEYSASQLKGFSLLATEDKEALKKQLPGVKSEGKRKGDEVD
# ASSAY_DETAILS: fluorescence anisotropy; 200; 50 mM Tris-HCl pH 7.0, 150 uM ZnSO4, 4 mM DTT, 25 C; NaCl 0-200 mM (T2, as in cof; 10 nM DNA) or 25 mM (T3 mutants; 25 nM DNA)
# CONDITION_INFO: protein: recombinant; label: fluorescein-dT at T8 and T30; single-chain dumbbell with central nick, two tetraloops
pKd: −log10 of the molar value.
VALUE_KIND: pKd

>>> experimental_value("CGGTCGATCGTAAGATCGACCGCGGTCGATCGTAAGATCGACCG (structured_DNA, 5'-phosphate) [44-nt nicked symmetric dumbbell, 5'-phosphate, 2x fluorescein-dT]")
7.34
